- Tested on: SK-MM-2 (Plasma Cell Myeloma);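 also: after 72 h of two-drug dosing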
- test_details: Bliss excess, mean over the matrix (fraction); higher = more synergy
Exercise: for every item that follows, state its recorded Bliss excess.
Reply with the value as a number alone.

Exam item: Find the measured Bliss excess: item C=CCn1c(=O)c2cnc(Nc3ccc(N4CCN(C)CC4)cc3)nc2n1-c1cccc(C(C)(C)O)n1 [AZD1775] + O=C(c1cc(Cc2n[nH]c(=O)c3ccccc23)ccc1F)N1CCN(C(=O)C2CC2)CC1 [Olaparib] (first compound max 1 µM, partner max 10 µM) , target or system SK-MM-2 (Plasma Cell Myeloma).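 Also: after 72 h of two-drug dosing.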
Marked response: -0.0471

Exam item: Find the measured Bliss excess: item CN(CCO)CC[C@H](CSc1ccccc1)Nc1ccc(S(=O)(=O)NC(=O)c2ccc(N3CCC([C@@H](O)c4ccccc4-c4ccc(Cl)cc4)CC3)cc2)cc1S(=O)(=O)C(F)(F)F [AZD4320] + C[C@@H]1COCCN1C2=NC(=NC(=C2)C3(CC3)[S@](=N)(=O)C)C4=C5C=CNC5=NC=C4 [AZD6738] (first compound max 1 µM, 7x7, partner max 10 µM) , target or system SK-MM-2 (Plasma Cell Myeloma).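 Also: after 72 h of two-drug dosing.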
Marked response: -0.0126
